MEASUREMENT NOTES: small-molecule binders of probe aInhba, primary screen, biochemical, small-molecule microarray, 635/667 nm fluorescence (AID 1148);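 note: score merges 667nm spot fluorescence with signal-to-noise for antibody binding to printed compounds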
CONDITION DETAILS: higher = more signal
OBSERVATION TYPE: composite z-score
Just the number, please, no unit after it.

Below, each entry is followed by its recorded composite z-score result.
COMPOUND	composite z-score
C[C@]1(C(=O)NC2CC2)c2ccccc2C(=O)N(Cc2ccc(OC(F)(F)F)cc2)[C@H]1c1ccc(CO)cc1	0.152
O=C1O[C@@H](c2ccccc2)[C@@H](c2ccccc2)N2[C@@H](c3ccc(O)cc3)[C@]3(C(=O)Nc4ccc(C#CC5=CCCCC5)cc43)[C@@H](C(=O)N3CCN(c4ncccn4)CC3)[C@H]12	0.0633

input: Read off the recorded composite z-score for COCC(=C=CC[C@H](O)c1cccc(OCCO)c1)C[C@H](O)c1ccccn1
output: 0.0497

input: Indicate the recorded composite z-score value for this compound: CC(C)NC(=O)[C@@]1(C)c2ccccc2C(=O)N(C(C)C)[C@H]1c1ccc(CO)cc1
output: -0.197

input: Look up and report measured composite z-score for this entry: O=C1NC(=O)C2C1C=CC(C(O)c1cc(C(F)(F)F)cc(C(F)(F)F)c1)N2Nc1ccc(Cl)cc1Cl (stereo unspecified)
output: 0.069

input: Specify reported composite z-score for the compound shown: CO[C@H]1O[C@H](CO)[C@@H](OC(=O)Nc2ccc(Oc3ccccc3)cc2)[C@H](OC(=O)Nc2ccccc2-c2ccccc2)[C@@H]1OC(=O)Nc1ccccc1-c1ccccc1
output: 0.588

input: Check the records and state composite z-score for C=CC[C@H](OC(=O)Nc1ccc(OC)cc1)c1ccc(O)c2ccccc12
output: 0.0275

input: Provide composite z-score value for the following compound: CN(C)CCCCNC(=O)[C@H]1C[C@H]2C(=O)N3CCC[C@H]3C(=O)N2[C@H]1c1ccc(O)cc1
output: -0.643

====

MEASUREMENT NOTES: E. coli acrAB mutant growth effects, primary screen, E. coli filamentation inducers, strain DRC39, OD650, 24 h (AID 1178);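 note: growth measured as culture turbidity by optical density at 650 nm; test concentration not given here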
CONDITION DETAILS: higher = more signal, called active from +8 up or from −8 down
OBSERVATION TYPE: z-score
Please state the value as a number alone, without comment.

Consider the reported z-score for these molecules:
MOLECULE	z-score
C=C(COC)/C(=C/C[C@@H](OC(=O)c1ccncc1)c1ccc(CO)o1)c1cnc2ccccc2c1	0.16
O=C(O)[C@H](Cc1ccccc1)n1cc(-c2ccccn2)nn1	-0.256
CCOC(=O)C[C@H]1[C@H](OC(=O)Cc2ccc3c(c2)OCO3)[C@@H](NC(=O)C2CCCCC2)c2cc(OCCCO)ccc2N1C(=O)c1ccc2ccccc2n1	0.777
COc1cc2c(cc1OC)CN(C(=O)[C@@H]1[C@H]3C(=O)O[C@H](c4ccccc4)[C@H](c4ccccc4)N3[C@H](c3ccccc3OCCO)[C@@]13C(=O)Nc1ccc(C#CC4(O)CCCCCC4)cc13)CC2	-0.236
COc1ccc(NC(=O)O[C@H]2[C@H](OC(=O)Nc3ccc4c(c3)OCO4)[C@@H](OC(=O)Nc3ccc4c(c3)OCO4)[C@@H](OC)O[C@@H]2CO)cc1	1.13

input: Identify measured z-score corresponding to COc1ccccc1CN1C(=O)c2ccccc2[C@](Cc2ccccc2I)(C(=O)NC(C)C)[C@@H]1c1ccc(CO)cc1
output: 1.05

input: Give z-score for the following molecule: O=C1NC(=O)C2C1C=CC(C(O)c1ccc(Br)cc1)N2Nc1ccccn1 (stereo not given)
output: 0.421

input: Specify z-score for COc1ccc([Si](C)(C)[C@@H]2[C@@H](CCO)O[C@]3(C(=O)N(Cc4cccc(N5C(=O)c6cccc7cccc5c67)c4)c4ccccc43)[C@H]2C)cc1 and stop.
output: 1.55

input: In one line, give reported z-score of the entry C=CCOC(=O)[C@@H]1[C@H]2C(=O)O[C@H](c3ccccc3)[C@H](c3ccccc3)N2[C@H](c2ccc(OCCOC(=O)[C@H]3C[C@H]4C(=O)N[C@@H](CCCCNC(C)=O)C(=O)N4[C@H]3c3cccc(OCCO)c3)cc2)[C@@]12C(=O)Nc1ccc(I)cc12 .
output: -0.115

input: Tell me its z-score given CC(C)(C)OC(=O)CC[C@]1(C(=O)O)N=C(c2ccc(OCCCO)cc2)O[C@H]1c1ccccc1CN=[N+]=[N-] as the entry.
output: 0.184

input: Using known records, supply z-score for NCCCCCCNC(=O)[C@@H]1C[C@@H]2C(=O)N3CCC[C@H]3C(=O)N2[C@@H]1c1ccc(O)cc1
output: -0.188

====

SYSTEM NAME: Epidermal growth factor receptor (Homo sapiens)
MEASUREMENT NOTES: EGFR binders on small-molecule microarrays, primary screen, biochemical, small-molecule microarray, 635 nm fluorescence (AID 1104);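 note: score merges 667 nm emission intensity with spot signal to noise over triplicate slides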
CONDITION DETAILS: EGFR binding, higher = more signal
Decide by composite z-score: equal to or exceeding 0.03 means T, less means F.

Would you please look over these solved cases?
COMPOUND	LABEL CLASS
O=C1OCCC=C[C@H]2OC34C=CCN(c5ccc(Cl)cc5)C(=O)[C@H]3N(CCCCCO)C(=O)[C@@H]4C12 (some centres undefined)	F
COC(=O)[C@@]1(Cc2ccccc2)[C@H]2c3cc(C(=O)N4CCCC4)[nH]c3C[C@H]2CN1C(=O)c1ccccc1	F
Cc1c(NC(=O)/C(C#N)=C/C=C/c2ccc(N(C)C)cc2)c(=O)n(-c2ccccc2)n1C	T

input: // inclusive: composite z-score at least 0.03? input: Cc1ccc(C(C)CC(O)C2C=CC3C(=O)N(c4ccccc4)C(=O)C3N2Nc2ccc(C(C)C)cc2)o1 (centres undefined)
output: T

input: For this compound, is measured composite z-score 0.03 or higher? Cc1ccc(S[C@]2(C(=O)NC(C)C)CC(=O)N(Cc3ccccc3C(F)(F)F)[C@@H]2c2ccc(CO)cc2I)cc1
output: F

input: Does the reported composite z-score for COc1c(C)cc(-c2cc3c(c(Cc4ccccc4)n2)[Si](C(C)C)(C(C)C)OC3)cc1C fall at or above the 0.03 mark?
output: T

====

MEASUREMENT NOTES: CREB reporter modulators under forskolin, primary screen, cell-based, PC12, CRE-LacZ reporter, forskolin-stimulated (AID 1146);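 note: PC12 cells with 6xCRE LacZ reporter stimulated by forskolin 10 µM; beta-galactosidase reporter signal reflecting CREB driven transcription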
CONDITION DETAILS: luminescence, 4.5 h, higher = more signal, called active from +8 up or from −8 down
The source made the active and inactive calls.
OBSERVATION TYPE: z-score

Example entries begin here.
MOLECULE	z-score
Cc1ccc(S[C@]2(C(=O)NCC(F)(F)F)CC(=O)N(Cc3ccccc3)[C@@H]2c2ccc(CO)cc2)cc1	0.906 (inactive)
COCCCNC(=O)[C@@]1(Sc2ccc(C)cc2)CC(=O)N(Cc2cc(C(F)(F)F)cc(C(F)(F)F)c2)[C@@H]1c1ccc(CO)cc1	-1.15 (inactive)
NCCCCCCNC(=O)[C@@H]1C[C@@H]2C(=O)N3CCC[C@H]3C(=O)N2[C@@H]1c1ccc(O)cc1	-0.615 (inactive)
O=C1OCC=C[C@H]2OC34C=CCN(c5ccc(Cl)cc5)C(=O)[C@H]3N(CCCCCO)C(=O)[C@@H]4[C@@H]12 (some centres undefined)	0.168 (inactive)

input: // Input: CN1C(=O)C2C=CC(C(O)c3c(F)cccc3Cl)N(Nc3ccccc3)C2C1=O (centres undefined) . Output its z-score only.
output: 0.928 (inactive)

input: Return value of z-score for input C=CC[C@@]1(C(=O)O)N=C(c2ccc(OCCCO)cc2)O[C@@H]1c1ccccc1 , no commentary.
output: -1.2 (inactive)

input: # return recorded z-score for input O=C1C[C@]2(c3ccc([N+](=O)[O-])cc3)C(=O)N(Cc3ccccc3)c3cc(CO)ccc3[C@H]2N1CC12CC3CC(CC(C3)C1)C2
output: 0.245 (inactive)

input: Return reported z-score. Input molecule: CCOC(=CC(=O)OC)CC(O)c1cccc(Cl)c1 (centres undefined)
output: -0.216 (inactive)

input: Given C=CCC(OC(C)=O)[C@@H]1[C@@H](N(Cc2cc3ccccc3o2)C(=O)Cc2ccc(F)cc2)c2cc(OCCCO)ccc2N1C(=O)c1ccc2ccccc2n1 (some centres undefined) , respond with its z-score.
output: 0.0063 (inactive)

input: Fill in z-score for record COc1ccc([Si](C)(C)[C@H]2[C@H](CCn3cc([C@H](O)c4ccccc4)nn3)O[C@@]3(C(=O)N(Cc4ccc(N5CCOC5=O)cc4)c4ccccc43)[C@@H]2C)cc1
output: -0.889 (inactive)

input: Tell us which z-score value is on record for [N-]=[N+]=Nc1ccccc1[C@@H]1OC(c2ccc(OCCCO)cc2)=N[C@]1(CCS(=O)(=O)c1ccccc1)C(=O)NCCN1CCOCC1
output: -1.18 (inactive)

====

MEASUREMENT NOTES: RPMI8226 myeloma cell viability, profiling panel, resazurin fluorescence, basal, 24 h, PK04 Diversity Set (AID 1180);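 note: RPMI8826 multiple myeloma cell line at 5000 cells per well; test concentration not given here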
CONDITION DETAILS: higher = more signal
OBSERVATION TYPE: z-score
Just the number, please, no unit attached.

COMPOUND	z-score
CN1C(=O)C2C(C1=O)C1C=C(c3ccc(CO)cc3)C2C(c2cccs2)N1Cc1cccc(OC(F)(F)F)c1 (stereo unspecified)	-1.08
C=CCOC(=O)[C@H]1[C@@H]2C(=O)O[C@@H](c3ccccc3)[C@@H](c3ccccc3)N2[C@@H](c2ccc(OCCOC(=O)[C@H]3C[C@H]4C(=O)N[C@@H](Cc5ccccc5)C(=O)N4[C@H]3c3ccc(O)cc3)cc2)[C@]12C(=O)Nc1ccc(I)cc12	0.194
CCCN1C(=O)[C@]2(Cc3ccccc3)N=C(c3ccc(OCCCO)cc3)O[C@@H]2c2ccccc21	-1.13
NC(=O)NCC#Cc1ccc2c(c1)[C@]1(C(=O)N2)[C@H](C(=O)Nc2nc3ccccc3s2)[C@H]2C(=O)O[C@H](c3ccccc3)[C@H](c3ccccc3)N2[C@@H]1c1ccc(O)cc1	-0.253
COCCOC(=O)N1C(=O)[C@@]2(c3cc(C#CC4(O)CCCCCC4)ccc31)[C@H](c1ccccc1OCCO)N1[C@H](c3ccccc3)[C@H](c3ccccc3)OC(=O)[C@H]1[C@@H]2C(N)=O	-6.79

input: Indicate its recorded z-score; the compound in question is C=C1C2CC3C(=C4C(CO[C@@H]4[C@H]4CCCN4S(=O)(=O)c4ccccc4[N+](=O)[O-])C4C(=O)N(C)C(=O)C34)CC2C(=O)N1C (stereo partly specified)
output: -0.864
